experimental protocol: chemical genetic growth profiling, strain panel (AID 1159580);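 also: tested at 20 µM; growth read once vehicle control cultures reached saturation at 30 °C; 1 = growth at the plate median or of vehicle wells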
settings: S. cerevisiae deletion strains, growth OD, locus YMR129W, stronger effect = lower value
Counter-ions that a name gives are not always drawn. In all, about 5,500 compounds went through this assay and about 2,000 (36%) were called active. Not shown: some 18% with an inconclusive outcome. Some of the results follow. Where a SMILES comes first, the peptide text is derived from it. The star is where a group is joined. Tfa = O=C(C(F)(F)F)*
Each item that follows carries a reported normalized growth.
Field format: numeric only.

{"compound": "CO/N=C(\\C(=O)NC1C(=O)N2C(C(=O)OC(C)OC(C)=O)=C(COC(N)=O)CSC12)c1ccco1 (stereo not drawn)", "result": 0.995}
{"compound": "CC(C)C(NC(=O)C(Cc1ccc(O)cc1)NC(=O)C(NC(=O)C(F)(F)F)C(C)C)C(=O)O (stereo not drawn) (Tfa-Val-Tyr-Val-OH; configuration not given here)", "result": 0.998}
{"compound": "CO/N=C(\\C(=O)N[C@@H]1C(=O)N2C(C(=O)O)=C(CSc3nc(=O)c(O)nn3C)CS[C@H]12)c1csc(N)n1", "result": 0.996}
{"compound": "O=C1OC(c2ccc(O)cc2)(c2ccc(O)cc2)c2ccccc21", "result": 0.987}
{"compound": "COc1c2ccoc2c(OC)c2oc(=O)ccc12", "result": 0.986}
{"compound": "CO/N=C(\\C(=O)NC1C(=O)N2C(C(=O)O)=C(COC(N)=O)CSC12)c1ccco1 (stereo not drawn)", "result": 0.983}
{"compound": "CC1(C)NC(=O)N(c2ccc([N+](=O)[O-])c(C(F)(F)F)c2)C1=O", "result": 0.986}

Request: What does the data say about its normalized growth? Entry: CO/N=C(\C(=O)N[C@@H]1C(=O)N2C(C(=O)O)=C(COC(C)=O)CS[C@H]12)c1csc(N)n1
Response: 0.968

----------
experimental protocol: chemical genetic growth profiling, strain panel (AID 1159580)
settings: S. cerevisiae deletion strains, growth OD, locus YNL233W, strain BNI4
In all, about 5,500 compounds went through this assay and about 2,000 (36%) were called active. About 18% were inconclusive and are not listed. No stated cut-off is given here; in the data, active means normalized growth mostly below about 0.91 (no sharp cut-off); inconclusive means no clear call, values can overlap the other calls; inactive means mostly above about 0.92. The list shows a part of the results.
A correct response names exactly one class from class 1 = active, class 0 = inactive

# example entries with known answers
{"compound": "Oc1ccc(Cl)cc1", "label value": "class 0"}
{"compound": "COc1ccc2c(c1OC)C(=O)OC2[C@H]1c2c(cc3c(c2OC)OCO3)CCN1C (some centres undefined)", "label value": "class 0"}

Request: Name the outcome recorded for CC(C)COCC(CN(Cc1ccccc1)c1ccccc1)N1CCCC1 (centres undefined) in the assay.
Response: class 1

Request: Name the outcome recorded for O=C(O)CN1C(=O)c2cccc3cccc(c23)C1=O in the assay.
Response: class 0

Request: Name the outcome recorded for OCc1ccccc1O in the assay.
Response: class 0

Request: Name the outcome recorded for C=C1C(C)C2C(Cc3ccccc3)NC(=O)C23OC(=O)/C=C/C(O)CCCC(C)C/C=C/C3C1O (centres undefined) in the assay.
Response: class 0

Request: Name the outcome recorded for NC[C@@H]1CC[C@@H](N)[C@@H](O[C@H]2[C@H](O)[C@@H](O[C@H]3O[C@H](CO)[C@@H](O)[C@H](N)[C@H]3O)[C@H](N)C[C@@H]2N)O1 in the assay.
Response: class 0

Request: Name the outcome recorded for Oc1ccc2c(c1)OCC1c3cc4c(cc3OC21)OCO4 (centres undefined) in the assay.
Response: class 0

Request: Name the outcome recorded for Cc1c(Cl)cccc1Nc1ccccc1C(=O)O in the assay.
Response: class 1

Request: Name the outcome recorded for CC(C)(C)CC(C)(C)c1ccc(O)c(Cc2ccc(Cl)cc2Cl)c1 in the assay.
Response: class 0

Request: Name the outcome recorded for O=C1OC(c2ccc(O)cc2)(c2ccc(O)cc2)c2ccccc21 in the assay.
Response: class 0

Request: Name the outcome recorded for COc1cc([C@@H]2c3cc4c(c(O)c3C[C@H]3COC(=O)[C@@H]32)OCO4)cc(OC)c1OC in the assay.
Response: class 0

Request: Name the outcome recorded for CC(C(=O)O)c1ccc(C(=O)c2cccs2)cc1 (centres undefined) in the assay.
Response: class 0

----------
experimental protocol: chemical genetic growth profiling, strain panel (AID 1159580)
settings: S. cerevisiae deletion strains, growth OD, locus YKL203C, strain TOR2
Out of some 5,500 compounds screened, about 2,000 (36%) were called active. Inconclusive results (about 18%) are left out. Rule as the data show it: active = normalized growth mostly below about 0.91 (no sharp cut-off); inconclusive = no clear call, values can overlap the other calls; inactive = mostly above about 0.92. This is one part of the list.
A correct response names exactly one class from active, inactive

{"molecular string": "Cc1onc(-c2c(Cl)cccc2Cl)c1C(=O)NNc1c(Cl)cccc1Cl", "label value": "inactive"}
{"molecular string": "Cc1c(C(=O)N(Cc2ccccc2)Cc2cccs2)cnn1-c1ccc(Cl)cc1", "label value": "inactive"}
{"molecular string": "Cc1onc(-c2c(F)cccc2Cl)c1C(=O)ON=C1C2CC3CC(C2)CC1C3", "label value": "inactive"}

Request: Name the outcome recorded for O=[N+]([O-])c1ccc(Sc2ssc(=S)c2-c2ccccc2)nc1 in the assay.
Response: active

Request: Name the outcome recorded for CC(C)(C)c1ccc(C(=O)NNc2c(Cl)cccc2Cl)cc1 in the assay.
Response: inactive

Request: Name the outcome recorded for OC(=Cc1nc2ccccc2nc1C=C(O)c1ccc(Cl)cc1)c1ccc(Cl)cc1 in the assay.
Response: inactive

Request: Name the outcome recorded for O=C(/C=C/Sc1nc2ccccc2s1)c1ccc(Cl)cc1 in the assay.
Response: inactive

Request: Name the outcome recorded for Cc1onc(-c2c(Cl)cccc2Cl)c1C(=O)NC(C)(C)CC(C)(C)C in the assay.
Response: inactive

----------
experimental protocol: chemical genetic growth profiling, strain panel (AID 1159580);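 also: tested at 20 µM; growth read once vehicle control cultures reached saturation at 30 °C; 1 = growth at the plate median or of vehicle wells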
settings: S. cerevisiae deletion strains, growth OD, locus YOR184W, strain ser1
Hit rate of the full screen: of about 5,500 compounds, about 2,000 (36%) were called active. About 18% were inconclusive and are not listed. No stated cut-off is given here; in the data, active means normalized growth mostly below about 0.91 (no sharp cut-off); inconclusive means no clear call, values can overlap the other calls; inactive means mostly above about 0.92. Some of the results follow.
A correct response names exactly one class from t = active, f = inactive

# example entries with known answers
{"molecule": "CC(C)NCC(O)c1cc(O)cc(O)c1 (stereo not drawn)", "label value": "f"}
{"molecule": "CCC(C)c1cnc(CC(C)C)c(=O)n1O (stereo not drawn)", "label value": "f"}

Request: Name the outcome recorded for C=C1CCC2C(CC2(C)C)C(=C)CC/C1=N\O (stereo not drawn) in the assay.
Response: t

----------
experimental protocol: chemical genetic growth profiling, strain panel (AID 1159580);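 also: tested at 20 µM; growth read once vehicle control cultures reached saturation at 30 °C; 1 = growth at the plate median or of vehicle wells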
settings: S. cerevisiae deletion strains, growth OD, locus YDL074C, strain BRE1
In all, about 5,500 compounds went through this assay and about 2,000 (36%) were called active. Roughly 18% stayed inconclusive and do not appear here. No stated cut-off is given here; in the data, active means normalized growth mostly below about 0.91 (no sharp cut-off); inconclusive means no clear call, values can overlap the other calls; inactive means mostly above about 0.92. The list shows a part of the results.
A correct response names exactly one class from active, inactive

{"molecule": "Cc1cccc(Nc2ccccc2C(=O)O)c1C", "label value": "inactive"}

Request: Name the outcome recorded for C#CCCCCCCCCCCCC(=O)CC(O)COC(C)=O (stereo not drawn) in the assay.
Response: active

Request: Name the outcome recorded for OCc1ccccc1O in the assay.
Response: inactive

Request: Name the outcome recorded for COC(=O)[C@@H]1OC(=O)[C@H]2O[C@@]23[C@@]1(C)CCC1[C@@]2(C)CCC(=O)C(C)(C)C2C[C@@H](OC(C)=O)[C@]13C (stereo partly drawn) in the assay.
Response: inactive

----------
experimental protocol: chemical genetic growth profiling, strain panel (AID 1159580);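 also: tested at 20 µM; growth read once vehicle control cultures reached saturation at 30 °C; 1 = growth at the plate median or of vehicle wells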
settings: S. cerevisiae deletion strains, growth OD, locus YLR268W, strain sec22, stronger effect = lower value
The campaign covered roughly 5,500 compounds. About 2,000 (36%) were called active. Another 18% or so got no clear call; they are omitted. Some of the results follow.
experimental readout: normalized growth
Field format: numeric only.

Consider the worked cases shown below.
{"molecule": "COc1cc(-c2coc3cc(OCc4ccccc4)c(OC)c(O)c3c2=O)cc(O)c1OC", "normalized growth": 0.903}
{"molecule": "NC(N)=NS(=O)(=O)c1ccc(N)cc1", "normalized growth": 0.996}
{"molecule": "COc1cc(-c2coc3cc(OC)c(OC)c(OC)c3c2=O)cc(OC)c1OC", "normalized growth": 1.03}
{"molecule": "CO/N=C(\\C(=O)N[C@@H]1C(=O)N2C(C(=O)O)=C(CSc3nc(=O)c(O)nn3C)CS[C@H]12)c1csc(N)n1", "normalized growth": 0.992}

Request: What does the data say about its normalized growth? Entry: COc1cc2c(cc1OC)C1Cc3ccc(OC)c(OC)c3CN1CC2 (configuration not stated)
Response: 0.962

Request: What does the data say about its normalized growth? Entry: COc1cc(-c2coc3cc(OCc4ccccc4)c(OC)c(O)c3c2=O)cc(OCc2ccccc2)c1OC
Response: 0.967

Request: What does the data say about its normalized growth? Entry: CCNC(=O)CC[C@H](N)C(=O)O
Response: 0.986

Request: What does the data say about its normalized growth? Entry: Oc1ccc2c(c1)OCC1c3cc4c(cc3OC21)OCO4 (configuration not stated)
Response: 0.906

Request: What does the data say about its normalized growth? Entry: COc1ccc2c(c1)O[C@H]1c3ccc(OC)cc3OC[C@@H]21
Response: 0.9

From: PubChem BioAssay AID1159580
